Data origin: the RNAGym collection of RNA variant scans (doi:10.1073/pnas.2313332121)

B1: TPR t1 (parent)
chain: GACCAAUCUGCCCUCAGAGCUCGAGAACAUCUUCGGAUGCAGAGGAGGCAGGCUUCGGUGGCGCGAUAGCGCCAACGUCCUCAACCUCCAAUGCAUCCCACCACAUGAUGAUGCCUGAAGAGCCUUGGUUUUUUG

- Variants of: B1
- MEASUREMENT NOTES: polymerase ribozyme fitness, log enrichment relative to wild type (log ratio); higher = more active; in vitro selection for triplet polymerase activity
Please mark Fulfilled if the recorded polymerase ribozyme fitness (log ratio) is equal to or greater than -3, and Not fulfilled if it falls below.

>  <MUTATION NAME>
A5G U9G C12A U78C G93A

>  <CLASS>
Fulfilled

$$$$
>  <MUTATION NAME>
C13G G51A C97U A111G U129A

>  <CLASS>
Not fulfilled

$$$$
>  <MUTATION NAME>
C11U C40U G122A

>  <CLASS>
Fulfilled

$$$$
>  <MUTATION NAME>
G71U U126G

>  <CLASS>
Fulfilled

$$$$
>  <MUTATION NAME>
A27U U81C U132C

>  <CLASS>
Not fulfilled

$$$$
>  <MUTATION NAME>
C70U U109A

>  <CLASS>
Not fulfilled

$$$$
>  <MUTATION NAME>
U7G G10A G39U G69C C101G G110C

>  <CLASS>
Not fulfilled

$$$$
>  <MUTATION NAME>
G42C A46U C82G

>  <CLASS>
Not fulfilled

$$$$
>  <MUTATION NAME>
C8U U87C C102U U112A G122A

>  <CLASS>
Fulfilled

$$$$
>  <MUTATION NAME>
C34U A50U C73U C115A A119G

>  <CLASS>
Not fulfilled

$$$$
>  <MUTATION NAME>
C3U A50C C73A C85U G120U

>  <CLASS>
Fulfilled

$$$$
>  <MUTATION NAME>
G36U C49U

>  <CLASS>
Fulfilled

$$$$
>  <MUTATION NAME>
A29U C62G

>  <CLASS>
Fulfilled

$$$$
>  <MUTATION NAME>
G127U U130G

>  <CLASS>
Fulfilled

$$$$
>  <MUTATION NAME>
A41U A43G C94U

>  <CLASS>
Not fulfilled

$$$$
>  <MUTATION NAME>
C12G C15U C31A G44A G47A G63C A84U G110C

>  <CLASS>
Not fulfilled

$$$$
>  <MUTATION NAME>
C34U C49G C53G A75G C88A C104A U112A

>  <CLASS>
Not fulfilled

$$$$
>  <MUTATION NAME>
C8A C22U G57C A75U C97U C102G

>  <CLASS>
Not fulfilled

$$$$
>  <MUTATION NAME>
G113C U126C

>  <CLASS>
Fulfilled

$$$$
>  <MUTATION NAME>
A18U A29G G42C G110U U112G

>  <CLASS>
Not fulfilled

$$$$
>  <MUTATION NAME>
C53A G71U G128C

>  <CLASS>
Fulfilled

$$$$
